biological target: CAVB (Homo sapiens); assay: fluorescent thermal shift assay (FTSA), CAVB; format: binding; details: converted from Kd_intr, 37 °C, independent of pH
Sequence (Q9Y2D0 34-317): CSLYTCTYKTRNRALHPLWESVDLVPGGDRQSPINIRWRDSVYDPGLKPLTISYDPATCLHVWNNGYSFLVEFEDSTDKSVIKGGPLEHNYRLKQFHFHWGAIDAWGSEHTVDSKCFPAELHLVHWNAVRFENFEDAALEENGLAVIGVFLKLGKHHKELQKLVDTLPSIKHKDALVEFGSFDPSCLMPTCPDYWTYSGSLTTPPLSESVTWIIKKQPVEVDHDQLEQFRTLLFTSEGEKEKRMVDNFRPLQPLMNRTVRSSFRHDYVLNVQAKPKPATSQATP
Examples of compounds with documented ΔGintr CAVB follow.
Kindly answer with a numeric value in kcal/mol, unit omitted.

Sample records with ΔGintr CAVB:
compound: COC(=O)c1cc(S(N)(=O)=O)c(Cl)cc1S(=O)(=O)C1CCCCC1
measured-target: CAVB (Homo sapiens)
u: kcal/mol
measured-value: -15.1

compound: COC(=O)c1cc(S(N)(=O)=O)c(SCCc2ccccc2)cc1Cl
measured-target: CAVB (Homo sapiens)
u: kcal/mol
measured-value: -11.2

compound: COC(=O)c1cc(S(N)(=O)=O)c(Br)cc1Sc1ccccc1
measured-target: CAVB (Homo sapiens)
u: kcal/mol
measured-value: -14.5

Ask: # ΔGintr CAVB lookup, item COC(=O)c1cc(S(N)(=O)=O)c(Cl)cc1Cl [Compound 1, Methyl 2,4-dichloro-5-sulfamoyl-benzoate]
Result: -12.4

Ask: Same for COC(=O)c1cc(S(N)(=O)=O)c(Cl)cc1SCc1ccccc1
Result: -12.8

Ask: Same for COC(=O)c1cc(S(N)(=O)=O)c(Cl)cc1S(=O)(=O)Cc1ccccc1
Result: -14.9

Ask: Same for COC(=O)c1cc(S(N)(=O)=O)c(Cl)cc1Sc1cccc2ccccc12
Result: -12.8

Ask: Same for COC(=O)c1cc(S(N)(=O)=O)c(Cl)cc1S(=O)(=O)c1cccc2ccccc12
Result: -14.5

Ask: Same for COC(=O)c1cc(S(N)(=O)=O)c(SCc2ccccc2)cc1Cl
Result: -11.5

Ask: Same for COC(=O)c1cc(S(N)(=O)=O)c(SC2CCCCCCCCCCC2)cc1Cl
Result: -10

Ask: Same for COC(=O)c1cc(S(N)(=O)=O)c(Cl)cc1SC1CCCCC1
Result: -15.5

###

Examples of compounds with documented pKa follow.
test: determination of pKa of the sulfonamide group by UV-VIS spectra at various pH; type: physicochemical; conditions: calculated from spectra at various pH, 37 °C
Give the figure only, with no unit attached.

line-notation: COC(=O)c1cc(S(N)(=O)=O)c(Cl)cc1S(=O)(=O)c1cccc2ccccc12
measured-value: 8.4
//
line-notation: COC(=O)c1cc(S(N)(=O)=O)c(Cl)cc1S(=O)(=O)Cc1ccccc1
measured-value: 8.2
//
line-notation: COC(=O)c1cc(S(N)(=O)=O)c(S(=O)(=O)C2CCCCC2)cc1Cl
measured-value: 9.8
//
line-notation: COC(=O)c1cc(S(N)(=O)=O)c(Cl)cc1SCCc1ccccc1
measured-value: 9.3

API: the following record is the query input.
Ask: # pKa lookup, item COC(=O)c1cc(S(N)(=O)=O)c(SCCc2ccccc2)cc1Cl
Result: 9.6

###

target: CAIV (Homo sapiens, UniProt P22748); assay: fluorescent thermal shift assay (FTSA), CAIV; type: binding; conditions: converted from Kd_obs, 37 °C, pH 7.0, FTSA
Sequence (P22748 19-312): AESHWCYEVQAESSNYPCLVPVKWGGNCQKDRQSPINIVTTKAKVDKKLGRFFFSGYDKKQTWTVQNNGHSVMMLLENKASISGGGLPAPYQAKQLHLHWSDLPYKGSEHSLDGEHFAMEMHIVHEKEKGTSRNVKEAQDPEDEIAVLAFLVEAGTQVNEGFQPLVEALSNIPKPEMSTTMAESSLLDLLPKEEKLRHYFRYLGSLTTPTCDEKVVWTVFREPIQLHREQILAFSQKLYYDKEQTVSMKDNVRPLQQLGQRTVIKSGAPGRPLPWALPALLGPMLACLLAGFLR
parameter-measured: ΔGobs CAIV (kcal/mol)
Kindly answer with a numeric value in kcal/mol, unit omitted.

Sample records with ΔGobs CAIV:
line-notation: COC(=O)c1cc(S(N)(=O)=O)c(Br)cc1Sc1ccccc1
ΔGobs CAIV, kcal/mol: -10.5
//
line-notation: COC(=O)c1cc(S(N)(=O)=O)c(SC2CCCCC2)cc1Cl
ΔGobs CAIV, kcal/mol: -9.08
//
line-notation: COC(=O)c1cc(S(N)(=O)=O)c(S(=O)(=O)Cc2ccccc2)cc1Cl
ΔGobs CAIV, kcal/mol: -7.43
//
line-notation: COC(=O)c1cc(S(N)(=O)=O)c(Cl)cc1Sc1ccccc1
ΔGobs CAIV, kcal/mol: -11.1
//
line-notation: COC(=O)c1cc(S(N)(=O)=O)c(Cl)cc1Sc1cccc2ccccc12
ΔGobs CAIV, kcal/mol: -5.93

Ask: # ΔGobs CAIV lookup, item COC(=O)c1cc(S(N)(=O)=O)c(Cl)cc1SC1CCCCC1
Result: -10.2

###

biological target: CAII (Homo sapiens); experiment: fluorescent thermal shift assay (FTSA), CAII; assay type: binding; conditions: converted from Kd_obs, 37 °C, pH 7.0, FTSA
parameter-measured: ΔGobs CAII (kcal/mol)
Kindly answer with a numeric value in kcal/mol, unit omitted.

Sample records with ΔGobs CAII:
molecule: COC(=O)c1cc(S(N)(=O)=O)c(Cl)cc1S(=O)(=O)Cc1ccccc1
ΔGobs CAII [kcal/mol]: -11.8
--
molecule: COC(=O)c1cc(S(N)(=O)=O)c(Cl)cc1Sc1cccc2ccccc12
ΔGobs CAII [kcal/mol]: -9.87
--
molecule: COC(=O)c1cc(S(N)(=O)=O)c(Cl)cc1Sc1ccccc1
ΔGobs CAII [kcal/mol]: -10.6

Ask: Given the entry COC(=O)c1cc(S(N)(=O)=O)c(Br)cc1Br [Compound 2, Methyl 2,4-dibromo-5-sulfamoyl-benzoate] , what ΔGobs CAII was observed with CAII (Homo sapiens)?
Result: -9.99

###

biological target: CAVI (Homo sapiens); experiment: fluorescent thermal shift assay (FTSA), CAVI; assay type: binding; settings: converted from Kd_obs, 37 °C, pH 7.0, FTSA
Sequence (P23280 18-308): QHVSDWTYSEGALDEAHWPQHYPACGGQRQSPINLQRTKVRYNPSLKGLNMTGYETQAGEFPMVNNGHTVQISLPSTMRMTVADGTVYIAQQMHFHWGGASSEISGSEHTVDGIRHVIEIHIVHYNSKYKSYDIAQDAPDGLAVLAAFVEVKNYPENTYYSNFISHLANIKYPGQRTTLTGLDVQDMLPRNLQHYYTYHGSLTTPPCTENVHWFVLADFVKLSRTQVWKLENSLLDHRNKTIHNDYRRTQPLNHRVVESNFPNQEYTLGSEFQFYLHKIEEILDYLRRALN
Examples of molecules with documented ΔGobs CAVI follow.
Kindly answer with a numeric value in kcal/mol, unit omitted.

Sample records with ΔGobs CAVI:
molecule: COC(=O)c1cc(S(N)(=O)=O)c(SC2CCCCC2)cc1Cl [Compound 3b]
u: kcal/mol
measured-value: -9.2

molecule: COC(=O)c1cc(S(N)(=O)=O)c(Cl)cc1Sc1cccc2ccccc12 [Compound 5f]
u: kcal/mol
measured-value: -6.88

molecule: COC(=O)c1cc(S(N)(=O)=O)c(SC2CCCCCCCCCCC2)cc1Cl [Compound 3e]
u: kcal/mol
measured-value: -8.08

API: the following record is the query input.
Ask: # ΔGobs CAVI lookup, item COC(=O)c1cc(S(N)(=O)=O)c(SCCc2ccccc2)cc1Cl [Compound 3d]
Result: -8.8

###

target: CAI (Homo sapiens, UniProt P00915); assay: fluorescent thermal shift assay (FTSA), CAI; assay type: binding; settings: converted from Kd_intr, 37 °C, independent of pH
Sequence (P00915 whole entry): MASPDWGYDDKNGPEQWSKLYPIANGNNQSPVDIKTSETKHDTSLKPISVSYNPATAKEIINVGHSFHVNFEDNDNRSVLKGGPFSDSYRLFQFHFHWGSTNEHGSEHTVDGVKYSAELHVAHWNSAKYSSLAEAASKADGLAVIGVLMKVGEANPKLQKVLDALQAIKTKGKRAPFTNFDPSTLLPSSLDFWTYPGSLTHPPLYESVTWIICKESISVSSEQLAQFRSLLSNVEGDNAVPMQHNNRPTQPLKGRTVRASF
Examples of molecules with documented ΔGintr CAI follow.
Kindly answer with a numeric value in kcal/mol, unit omitted.

Sample records with ΔGintr CAI:
molecule: COC(=O)c1cc(S(N)(=O)=O)c(Br)cc1S(=O)(=O)c1ccccc1 [Compound 10a]
measured-target: CAI (Homo sapiens, UniProt P00915)
measured-value: -11.3
//
molecule: COC(=O)c1cc(S(N)(=O)=O)c(S(=O)(=O)C2CCCCC2)cc1Cl
measured-target: CAI (Homo sapiens, UniProt P00915)
measured-value: -9.7
//
molecule: COC(=O)c1cc(S(N)(=O)=O)c(Cl)cc1SCCc1ccccc1
measured-target: CAI (Homo sapiens, UniProt P00915)
measured-value: -11.1

Ask: Given the entry COC(=O)c1cc(S(N)(=O)=O)c(SCCc2ccccc2)cc1Cl , what ΔGintr CAI was observed with CAI (Homo sapiens, UniProt P00915)?
Result: -10.7

Ask: Same for COC(=O)c1cc(S(N)(=O)=O)c(Cl)cc1Sc1cccc2ccccc12
Result: -9.94

###

target: CAXII (Homo sapiens, UniProt O43570); assay: fluorescent thermal shift assay (FTSA), CAXII; assay type: binding; settings: converted from Kd_obs, 37 °C, pH 7.0, FTSA
Sequence (O43570 25-354): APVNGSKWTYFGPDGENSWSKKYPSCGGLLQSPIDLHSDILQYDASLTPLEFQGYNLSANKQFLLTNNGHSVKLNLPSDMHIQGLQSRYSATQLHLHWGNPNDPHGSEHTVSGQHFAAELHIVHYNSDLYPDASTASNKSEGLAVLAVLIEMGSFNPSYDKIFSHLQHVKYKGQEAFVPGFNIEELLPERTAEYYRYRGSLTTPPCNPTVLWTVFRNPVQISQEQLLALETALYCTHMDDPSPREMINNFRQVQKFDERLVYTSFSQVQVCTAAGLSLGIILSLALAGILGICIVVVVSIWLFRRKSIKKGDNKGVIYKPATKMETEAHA
parameter-measured: ΔGobs CAXII (kcal/mol)
Kindly answer with a numeric value in kcal/mol, unit omitted.

compound: COC(=O)c1cc(S(N)(=O)=O)c(Br)cc1Sc1ccccc1 [Compound 6a]
ΔGobs CAXII / kcal/mol: -10.9

compound: COC(=O)c1cc(S(N)(=O)=O)c(S(=O)(=O)Cc2ccccc2)cc1Cl [Compound 7c]
ΔGobs CAXII / kcal/mol: -7.34

API: the following record is the query input.
Ask: # ΔGobs CAXII lookup, item COC(=O)c1cc(S(N)(=O)=O)c(Cl)cc1Sc1ccccc1 [Compound 5a]
Result: -11.7

###

Examples of molecules with documented Δp_RSO2NH2H, protonation enthalpy of sulfonamide group follow.
details: 37 °C
Give me the value, and tack the unit on after it.

Sample records with Δp_RSO2NH2H, protonation enthalpy of sulfonamide group:
line-notation: COC(=O)c1cc(S(N)(=O)=O)c(Cl)cc1S(=O)(=O)c1ccccc1
measured-value: -6.91 kcal/mol

line-notation: COC(=O)c1cc(S(N)(=O)=O)c(Cl)cc1SC1CCCCC1
measured-value: -7.96 kcal/mol

line-notation: COC(=O)c1cc(S(N)(=O)=O)c(SC2CCCCC2)cc1Cl
measured-value: -8.53 kcal/mol

Ask: # Δp_RSO2NH2H, protonation enthalpy of sulfonamide group lookup, item COC(=O)c1cc(S(N)(=O)=O)c(SCCc2ccccc2)cc1Cl
Result: -9.8 kcal/mol

###

target: CAVII (Homo sapiens, UniProt P43166); assay: fluorescent thermal shift assay (FTSA), CAVII; assay type: binding; conditions: converted from Kd_intr, 37 °C, independent of pH
Sequence (P43166 whole entry): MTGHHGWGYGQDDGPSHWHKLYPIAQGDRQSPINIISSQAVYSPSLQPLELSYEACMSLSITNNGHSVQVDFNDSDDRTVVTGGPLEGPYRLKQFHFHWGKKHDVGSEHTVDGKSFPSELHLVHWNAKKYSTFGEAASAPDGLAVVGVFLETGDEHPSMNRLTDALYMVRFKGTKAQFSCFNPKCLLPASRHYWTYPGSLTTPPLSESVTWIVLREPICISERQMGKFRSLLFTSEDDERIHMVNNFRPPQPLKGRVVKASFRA
parameter-measured: ΔGintr CAVII (kcal/mol)
Kindly answer with a numeric value in kcal/mol, unit omitted.

Ask: # ΔGintr CAVII lookup, item COC(=O)c1cc(S(N)(=O)=O)c(Cl)cc1Sc1ccccc1
Result: -14.4

Ask: Same for COC(=O)c1cc(S(N)(=O)=O)c(SCc2ccccc2)cc1Cl
Result: -13.8

Ask: Same for COC(=O)c1cc(S(N)(=O)=O)c(SCCc2ccccc2)cc1Cl
Result: -14.2
